System: HL-60(TB) leukemia
Assay Method Text: NCI tumour cell line growth inhibition, 48 h
Item-by-item account of TGI
Value Kind: TGI

Compound: O=C(O)c1ccc(/C=N/N=C2c3ccccc3-c3ccccc32)cc1
Value Kind: TGI
Reading: > 100 µM
//
Compound: O=c1/c(=C\c2ccc(Br)cc2)sc2n1C(c1ccc(Br)cc1)C1=C(N=2)c2ccc3ccccc3c2OCC1 (stereo not given)
Value Kind: TGI
Reading: > 100 µM
//
Compound: Cc1cccc(N=N/C(=N\NC(=O)c2cc(Cl)ccc2O)c2ccc(N(CCC#N)CCC#N)cc2C)c1
Value Kind: TGI
Reading: 34.4 µM
//
Compound: Cn1c(=O)c(Oc2ccc(F)cc2F)cc2cnc(NCC(C)(C)O)nc21
Value Kind: TGI
Reading: > 25 µM
//
Compound: CCCCCCCCCCCCc1ccsc1-c1ccc(-c2ccc(-c3sccc3CCCCCCCCCCCC)s2)s1
Value Kind: TGI
Reading: > 100 µM

----------
Measured TGI accompanies every entry in the list below.
Tested on: SNB-19 CNS
Assay Method Text: NCI tumour cell line growth inhibition, 48 h
Value Kind: TGI

Compound: CCOC(=O)c1cc([N+](=O)[O-])c(Sc2ncnc3nc[nH]c23)c([N+](=O)[O-])c1
Value Kind: TGI
Reading: 32.4 µM

Compound: O=C(/C=C/C=C/c1ccc2c(c1)OCO2)N/N=C\c1ccc(O)cc1O
Value Kind: TGI
Reading: 24.2 µM

Compound: C#CCn1c(=O)ccn(/C(=C/C(=O)OCC)C(=O)OCC)c1=O
Value Kind: TGI
Reading: 40.7 µM

Compound: CCc1ccccc1NC(=O)C(=O)C1C(=O)N(c2ccccc2)N=C1N (stereo not drawn)
Value Kind: TGI
Reading: > 100 µM

Compound: N#C/C(=C\c1ccc[nH]1)C(=O)c1ccccc1
Value Kind: TGI
Reading: > 100 µM

Compound: CC(C)CC1N=C(OCc2ccccc2)OC1=O (stereo not drawn)
Value Kind: TGI
Reading: > 100 µM

Compound: CN(C)C1CN(C(=O)c2cc(-c3ccc4ncnc(N5CCc6cc(F)c(Cl)cc65)c4c3)cnc2N)C1
Value Kind: TGI
Reading: > 100 µM

Compound: CN1C2(c3ccccc3)C(C(=O)c3ccccc3)=C(C(=O)c3ccccc3)C1(c1ccccc1)c1c(-c3ccccc3)sc(-c3ccccc3)c12
Value Kind: TGI
Reading: > 100 µM

Compound: N#Cc1cccc(C2C(=O)c3ccc(C(=O)c4ccc5c(c4)C(=O)N(c4ccc(Oc6ccc(N7C(=O)c8ccc(C(=O)c9ccc%10c(c9)C(=O)N(c9cccc(C#N)c9)C%10=O)cc8C7=O)cc6)cc4)C5=O)cc3C2=O)c1 (stereo not drawn)
Value Kind: TGI
Reading: > 100 µM

Compound: O=C(CC(C(=O)c1cccs1)c1ccc2c(c1)OCO2)c1ccccc1 (stereo not drawn)
Value Kind: TGI
Reading: > 100 µM

Compound: CCCC(C(=O)OC)C1N=C(NC#N)N(Cc2ccccc2)C1=O (stereo not drawn)
Value Kind: TGI
Reading: > 100 µM

Compound: Cc1cc(Cl)cc2c1NC(=O)C2(O)C(C(=O)c1ccccc1)c1ccccc1 (stereo not drawn)
Value Kind: TGI
Reading: > 100 µM

Compound: CC(=O)O[C@@H]1CC[C@@]2(C)C(=O)C34C[C@@]5(C)C([C@@H](C)CCCC(C)C)CCC5(C)[C@](O)(O3)C(=O)[C@H]4C2C1(C)C (stereo partly drawn)
Value Kind: TGI
Reading: 30.7 µM

Compound: Cn1c(=O)c2c(=O)cc(N)[nH]c2n(C)c1=O
Value Kind: TGI
Reading: > 100 µM

Compound: C[C@]12CC[C@H]3[C@@H](CC[C@]4(O)C[C@@H](O[C@@H]5O[C@H](CO)[C@@H](O[C@@H]6OC[C@@H](O)[C@H](O)[C@H]6O)[C@H](O)[C@H]5O)CC[C@]34C=O)[C@@]1(O)CC[C@@H]2C1=CC(=O)OC1
Value Kind: TGI
Reading: 9.27 µM

Compound: CC1CCc2c(sc3ncnc(N/N=C/c4ccc(Cl)cc4)c23)C1 (stereo not drawn)
Value Kind: TGI
Reading: 93 µM

Compound: CON[N+]([O-])=NC(C)C
Value Kind: TGI
Reading: > 100 µM

Compound: COCCn1c2c([n+](Cc3cnccn3)c1C)C(=O)c1ccccc1C2=O
Value Kind: TGI
Reading: 0.0153 µM

----------
Tested on: 786-0 renal
Assay Method Text: NCI tumour cell line growth inhibition, 48 h
Listing of recorded TGI by entry.
Value Kind: TGI

Molecule: CC1=C(C(=O)Nc2ccc(C)cc2)C(c2cccc([N+](=O)[O-])c2)C(C(=O)Nc2ccc(C)cc2)=C(C)N1
Reading: > 100 µM
//
Molecule: COc1cc2c(cc1OCCCN1CCN(C(=S)SCCC(C#N)(c3ccccc3)c3ccccc3)CC1)N=C[C@@H]1CCCN1C2=O
Reading: 1.08 µM
//
Molecule: Cc1cccc(N=N/C(=N\NC(=O)c2cc(Cl)ccc2O)c2ccc(N(CCC#N)CCC#N)cc2C)c1
Reading: > 100 µM
//
Molecule: COc1ccc(/C=C\c2cc(OC)c(OC)c(OC)c2)c(NS(=O)(=O)c2ccc(F)cc2)c1O
Reading: 47.5 µM
//
Molecule: CC(C)=CCc1cc(/C=C/C(=O)O)cc(CC=C(C)C)c1O
Reading: > 100 µM
//
Molecule: CC[As](CC)SCC1OC(OC(C)=O)C(OC(C)=O)C(OC(C)=O)C1OC(C)=O (centres undefined)
Reading: 28.1 µM
//
Molecule: O=C(CC(=O)c1cccc([N+](=O)[O-])c1)C(=O)Nc1ccccc1
Reading: > 100 µM
//
Molecule: COc1cc2c(cc1-c1coc3cc(O)ccc3c1=O)OCO2
Reading: 29.9 µM
//
Molecule: CON[N+]([O-])=NC(C)C
Reading: > 100 µM
//
Molecule: O=C1N[C@H](C(=O)O)[C@@H](c2ccc(OCc3ccccc3)cc2)O1
Reading: 65.6 µM
//
Molecule: CCOc1ccc2c(c1)C(=O)c1c-2n(CCCN=[N+]=[N-])c(=O)c2cc([N+](=O)[O-])ccc12
Reading: 22.7 µM
//
Molecule: CC(C)c1c(O[Si](C(C)C)(C(C)C)C(C)C)cc2c(c1O)CC[C@H]1C(C)(C)CCC[C@]21C
Reading: > 100 µM
//
Molecule: NC1(C(=O)N[C@@H](CCO)c2ccc(Cl)cc2)CCN(c2ncnc3[nH]ccc23)CC1
Reading: > 100 µM
//
Molecule: CC(C)C1=CC2=C(C(=O)C1=O)C13CCCC(C)(C)C1CC2OC3=O (centres undefined)
Reading: 31.9 µM
//
Molecule: OC(Cc1cc(CC(O)(C(F)(F)F)C(F)(F)F)nc(CC(O)(C(F)(F)F)C(F)(F)F)c1)(C(F)(F)F)C(F)(F)F
Reading: 6.34 µM
//
Molecule: CC(=O)Oc1cc(-c2oc3cc(OC(C)=O)c(C4OC(CO)C(O)C(O)C4O)c(OC(C)=O)c3c(=O)c2O)c(OC(C)=O)cc1O (centres undefined)
Reading: > 100 µM
//
Molecule: [CH3][Hg]/[N]=C(/N)NC#N
Reading: 22.4 µM
//
Molecule: O=C(Nc1ccc(F)cc1)c1cc2c(cc1Cl)Sc1nccn1S2(=O)=O
Reading: > 100 µM
//
Molecule: Cc1c(Cl)c(C)c(Cl)c(O)c1Cl
Reading: > 100 µM

----------
Test system: ACHN renal
Assay Method Text: NCI tumour cell line growth inhibition, 48 h
Lab note: compare TGI against 6 µM. Equal or greater, write Condition met. Smaller, write Condition not met.

Compound: Nc1n[nH]c2ccc([C@@H]3Nc4ccc5cn[nH]c5c4[C@H]4C5CCC(C5)[C@@H]34)cc12 (stereo partly drawn)
Class Label: Condition met
--
Compound: CCCC(C(=O)OC)C1N=C(NC#N)N(Cc2ccccc2)C1=O (stereo not drawn)
Class Label: Condition met
--
Compound: c1ccc(/C(=N/Nc2ccccn2)c2cccnn2)cc1
Class Label: Condition met
--
Compound: C#CCNC(=O)CC[C@@H](C)[C@H]1CC[C@H]2[C@@H]3CC[C@@H]4CC(=O)CC[C@]4(C)[C@H]3CC[C@]12C
Class Label: Condition met
--
Compound: CC(=O)ON=C1C=CC(=C(C#N)c2ccccc2)C=C1
Class Label: Condition met
--
Compound: COc1ccc(CNc2nc3cc(C(F)(F)F)ccc3nc2C(=O)O)cc1
Class Label: Condition met
--
Compound: CCOc1ccc2c(c1)C(=O)c1c-2n(CCCN=[N+]=[N-])c(=O)c2cc([N+](=O)[O-])ccc12
Class Label: Condition met
--
Compound: CO/C(=C1/NC(=O)C(Cc2ccc(O)c(Br)c2)N(C)C(=O)C(C)NC(=O)CCC/C=C(\C)CCC(C)OC1=O)c1ccccc1 (stereo not drawn)
Class Label: Condition not met
--
Compound: COc1ccc(Nc2cc(=O)[nH]c(=O)[nH]2)cc1
Class Label: Condition met
--
Compound: O=C(CC1(O)C(=O)Nc2ccccc21)c1ccccc1O (stereo not drawn)
Class Label: Condition met
--
Compound: CCn1ncc(N=O)c1N
Class Label: Condition met
--
Compound: NC(=O)c1csc(-c2ccc(CO)o2)n1
Class Label: Condition met
--
Compound: COc1cc(C(=O)NN=C2c3ccccc3-c3ccccc32)cc(OC)c1OC
Class Label: Condition met
--
Compound: C=C1CC[C@@H]2[C@](C)(COC(=O)CCC(=O)O)CCC[C@@]2(C)[C@@H]1CCC1=CC(=O)OC1
Class Label: Condition met
--
Compound: O=C(CC(=O)N1N=C(N(c2ccccc2)c2ccccc2)CC1c1ccccc1)Nc1cccc(Cl)c1 (stereo not drawn)
Class Label: Condition met
--
Compound: CN(/N=C/C=N/N(C)C1=NCCN1)C1=NCCN1
Class Label: Condition met
--
Compound: C[C@@H]1CC[C@@]2(C)[C@H](C)/C(=C\COC(=O)/C=C/c3ccc(O)c(O)c3)CC[C@@]12C
Class Label: Condition met
--
Compound: COC1C(=O)CCC2(CO2)C1(O)C1(C)OC1CC=C(C)C (stereo not drawn)
Class Label: Condition met
--
Compound: Cc1cc(=O)oc2c(C)c3oc(CBr)cc3cc12
Class Label: Condition met
--
Compound: COc1ccc2nc3ccccc3c(NCCN(CCCl)CCCl)c2c1
Class Label: Condition not met
--
Compound: CCCCCCCCCCCCCCCCCC[S+](C)CC (stereo not drawn)
Class Label: Condition not met
--
Compound: N#CCCN(c1ccc(C=O)cc1)S(=O)(=O)c1ccccc1
Class Label: Condition met
--
Compound: CC1[C@@H]2CC=C3[C@H]4CCC5Cc6nc7c(nc6C[C@@]5(C)C4CC(=O)[C@]32CO[C@]12OC(C)(C)CC2O)CC1CC[C@@H]2C3=C[C@H]4O[C@@]5(O[C@@](C)(CO)C[C@@H]5O)C(C)[C@@]4(O)[C@]3(C)[C@@H](O)CC2[C@]1(C)C7 (stereo partly drawn)
Class Label: Condition not met
--
Compound: C/C(CCN(C)C)=N\OC(=O)c1ccccc1
Class Label: Condition met
--
Compound: Cc1cc(N=Cc2c(CO)cnc(C)c2O)c(N=Cc2c(CO)cnc(C)c2O)cc1C
Class Label: Condition met
--
Compound: COC(=O)C(C(=O)C(=O)Nc1ccccc1C)c1nc2ccc([N+](=O)[O-])cc2[nH]c1=O (stereo not drawn)
Class Label: Condition met
--
Compound: COc1cc2c(cc1OCCCN1CCN(C(=S)SCCC(C#N)(c3ccccc3)c3ccccc3)CC1)N=C[C@@H]1CCCN1C2=O
Class Label: Condition not met
--
Compound: O=C(CC(=O)c1cccc([N+](=O)[O-])c1)C(=O)Nc1ccccc1
Class Label: Condition met
--
Compound: CCOC(=O)c1cc([N+](=O)[O-])c(Sc2ncnc3nc[nH]c23)c([N+](=O)[O-])c1
Class Label: Condition met
--
Compound: O=C1N[C@H](C(=O)O)[C@@H](c2ccc(OCc3ccccc3)cc2)O1
Class Label: Condition met
--
Compound: O=C(CCN1CCCN(c2cnc3ccccc3n2)CC1)c1csc2ccccc12
Class Label: Condition met
--
Compound: CCOc1cc2c(cc1O)C(=O)C[C@@H]1[C@@H]2CC[C@]2(C)[C@@H](O)CC[C@@H]12
Class Label: Condition met
--
Compound: CC(C)C(CCOS(=O)(=O)O)CCC(C)[C@H]1[C@@H](O)C(O)C2[C@]3(O)C[C@@H](O)C4(O)C[C@@H](O)CC[C@]4(C)C3CC[C@@]21C (stereo partly drawn)
Class Label: Condition met
--
Compound: COc1ccc2nc3cc(Cl)ccc3c(NCCCCCC(=O)NC(COc3ccc4ccc5cccnc5c4n3)COc3ccc4ccc5cccnc5c4n3)c2c1
Class Label: Condition met
--
Compound: CCOC(=O)CC1Nc2ccccc2C12CCc1c([nH]c3ccccc13)C2C(=O)OCC (stereo not drawn)
Class Label: Condition met
--
Compound: CC#CC#C/C=C1\C=CC2(OC=CC2O)O1 (stereo not drawn)
Class Label: Condition met
--
Compound: COc1cc(C2CC(c3cccc(Nc4ccnc5cc(Cl)ccc45)c3)=NN2c2ccccc2)cc(OC)c1OC (stereo not drawn)
Class Label: Condition met
--
Compound: CCCCCCCCCCCCCCCCCCOc1ccccc1COP(=O)(O)OOCC[N+](C)(C)C
Class Label: Condition not met
